Tested on: J774
assay_method_text: Cytotoxicity against mouse J774 cells at 25 uM incubated for 72 hrs by MTT assay relative to control
Assay type: toxicity, cell-based
cond: j774, 72 h
quantity_measured: Activity (%)
// return numeric value only (unit: %, not printed)

State the recorded Activity for this entry: Cc1ccc(NC(=O)COc2ccc(-c3nc4ccccc4c(=O)n3C)cc2)cc1
81.98

State the recorded Activity for this entry: CCn1c(-c2ccc(OCC(=O)Nc3ccc(OC)cc3)cc2)nc2ccccc2c1=O
62.11

State the recorded Activity for this entry: CCn1c(-c2ccc(OCC(=O)Nc3ccccn3)cc2)nc2ccccc2c1=O
79.09

State the recorded Activity for this entry: CCn1c(-c2ccc(OCC(=O)Nc3ccc(C)cc3)cc2)nc2ccccc2c1=O
68.99

State the recorded Activity for this entry: CCCCCCCCCCCCCCCCOP(=O)([O-])OCC[N+](C)(C)C
76.74

State the recorded Activity for this entry: Cn1c(-c2ccc(OCC(=O)Nc3cccc(C(F)(F)F)c3)cc2)nc2ccccc2c1=O
78.66

State the recorded Activity for this entry: Cn1c(-c2cccc(OCC(=O)Nc3ccc(F)cc3)c2)nc2ccccc2c1=O
56.86

State the recorded Activity for this entry: Cc1ccc(NC(=O)COc2cccc(-c3nc4ccccc4c(=O)n3C)c2)cc1
41.69

State the recorded Activity for this entry: Cn1c(-c2ccc(OCC(=O)Nc3ccc(F)cc3)cc2)nc2ccccc2c1=O
69.62

State the recorded Activity for this entry: CCn1c(-c2ccc(OCC(=O)Nc3ccc(Cl)cc3)cc2)nc2ccccc2c1=O
47.53

---

Assignment: determine reported selectivity ratio for the given molecules.
assay_method_text: Selectivity index, ratio of CC50 for mouse J774 macrophage to IC50 for Leishmania donovani amastigotes infected in J774 macrophage
Assay type: toxicity
cond: J774 macrophages, read-out: Ratio CC50/IC50

State the recorded selectivity ratio for this entry: CCn1c(-c2ccc(OCC(=O)Nc3cccc(C(F)(F)F)c3)cc2)nc2ccccc2c1=O
2.15

State the recorded selectivity ratio for this entry: Cn1c(-c2ccc(OCC(=O)Nc3ccc([N+](=O)[O-])cc3)cc2)nc2ccccc2c1=O
2.45

State the recorded selectivity ratio for this entry: Cn1c(-c2cccc(OCC(=O)Nc3ccc(Cl)cc3)c2)nc2ccccc2c1=O
4.54

State the recorded selectivity ratio for this entry: Cn1c(-c2ccc(OCC(=O)Nc3ccc(Cl)cc3)cc2)nc2ccccc2c1=O
2.78

State the recorded selectivity ratio for this entry: CCn1c(-c2ccc(OCC(=O)Nc3ccc(C)cc3)cc2)nc2ccccc2c1=O
4.03

---

System: J774
assay_method_text: Cytotoxicity against mouse J774 cells at 25 uM incubated for 72 hrs by MTT assay relative to control
Assay type: toxicity, cell-based
cond: j774, 72 h
quantity_measured: Activity (%)
// return numeric value only (unit: %, not printed)

State the recorded Activity for this entry: COc1ccc(NC(=O)COc2cccc(-c3nc4ccccc4c(=O)n3C)c2)cc1
52.92

State the recorded Activity for this entry: COc1ccc(NC(=O)COc2ccc(-c3nc4ccccc4c(=O)n3C)cc2)cc1OC
67.45

State the recorded Activity for this entry: Cn1c(-c2ccc(OCC(=O)Nc3ccc4c(c3)CCC4)cc2)nc2ccccc2c1=O
53.88

State the recorded Activity for this entry: Cn1c(-c2ccc(OCC(=O)Nc3ccc(Cl)cc3)cc2)nc2ccccc2c1=O
81.59

State the recorded Activity for this entry: Cn1c(-c2ccc(OCC(=O)Nc3ccccn3)cc2)nc2cc(F)ccc2c1=O
58.74
